# System: A498 renal
# testDetails: NCI tumour cell line growth inhibition, 48 h
I'd appreciate it if you could supply TGI values for the items below.

# compound, attributeMeasured, reportedValue
rows = [
    ("CCCCCCCCCCCCCCNC(=O)Nc1ccc(Cl)c(Cl)c1", "TGI", "> 26.4 µM"),
    ("CCCCCC/C=C\\CCCCCCCCC(=O)c1cccc(OC)c1OC", "TGI", "> 100 µM"),
]

Hi there! I need TGI for each item below, if you can.
1. CC(C)[C@@H]1CC[C@]2(CO2)[C@@H]2C(=O)OCC(C(=O)O)=C[C@H]21
2. CCN(CC)c1ccc2nc3ccc(=[N+](CC)CC)cc-3oc2c1

["0.738 µM", "17.5 µM"]

Hi there! I need TGI for each item below, if you can.
1. C=C1CC[C@@H](CCC2CCC3(OC2)O[C@]2(O)CC[C@@]3(C)OC2(C)C)C(C)(C)[C@H]1C/C=C1\CCOC1=O (stereo not given in full)
2. CC(N)(CC(O)(C(F)(F)Cl)C(F)(F)Cl)C(=O)O (stereo not given)
3. COC(=O)c1cc(S(=O)(=O)NC2=NCC(C)NN2)c(S)cc1Cl (stereo not given)
4. O=C(O)CCCc1ccc2c(c1)CC1(C2)Cc2cc3c(cc2C1)CCCC3
5. COC(=O)[C@@H]1CO[C@H](C(C)(C)C)N1C(=O)N1C=CC(=O)C[C@H]1C

["34.9 µM", "> 10 µM", "72.8 µM", "35.3 µM", "> 100 µM"]

Hi there! I need TGI for each item below, if you can.
1. [B]C(=O)NC(CC(C)C)C(=O)NCC(=O)NC1c2ccsc2C(=O)C1O (stereo not given) (tested in a mixture with another compound)
2. O=C(CSCC(=O)N/N=C/c1cccc(O)c1)N/N=C/c1cccc(O)c1
3. CSCCC(C(=O)O)N(C)C (stereo not given)
4. COc1ccc2nc(NC(=O)C(=O)CC(=O)c3ccc([N+](=O)[O-])cc3)sc2c1

1: > 100 µM; 2: > 100 µM; 3: > 100 µM; 4: > 100 µM
